Origin of measurements: ChEMBL document CHEMBL4513216

System: Plasmodium berghei
method: Screen against P. berghei liver stage (PbLuc), transformed with Luciferase, at 10uM
Assay type: functional, HepG2
experimental_conditions: tested at 10 uM
Out of some 69,000 compounds screened, about 8,600 (12%) showed an effect of 50% or more. Many of the other results were omitted from the sample, so strong results are more common in it than they were.
As shown below, each of these compounds has a reported INHIBITION value.
Give the value, in units of %, as a plain number.

# annotated cases, reported INHIBITION shown
| compound | endpoint_value |
| --- | --- |
| Cc1nc(CN2CCc3ncnc(C4CC4)c3CC2)cs1 | 15.9 |
| O=C(CCN1CCOC(Cn2cccn2)C1)NC1CCCCC1 (stereo not given) | -107 |
| Cc1cc(N2CCN(C(=O)[C@@H]3C[C@H]4C=C[C@@H]3C4)CC2)nc2ccccc12 | -13.2 |

Query: Answer with the recorded INHIBITION of "Cc1nc(CN2CCc3ncnc(-c4ccsc4)c3CC2)cs1" only.
Response: 60.2

Query: Answer with the recorded INHIBITION of Cc1cc(CNC2CCCN(Cc3noc(C4CC4)n3)C2)on1 (stereo not given) only.
Response: 46.2
